Hello, the source for this data is paper PMC7397943, in case you need it.

Measured CC50 at 48 h, listed per entry for reference.
# assay-overview: Cell viability in mock–infected MT–2 cells
# Format: cell-based
# test-context: human, mock-infected MT-2 cells
observable: CC50 at 48 h

chemical-structure: COc1ccc(-c2cc(=O)c3cc(OC)ccc3o2)c(OC)c1
assay-result: > 100 µM
//
chemical-structure: C[C@]12CCC(=O)C=C1C=C[C@@H]1[C@@H]2CC[C@@]2(C)[C@H]1CC[C@@]21CCC(=O)O1
assay-result: ~100 µM
//
chemical-structure: C=C1C(=O)O[C@@H]2[C@H]1CC[C@H](C)[C@@H]1CCC(=O)[C@@]21C
assay-result: 20 to 100 µM
//
chemical-structure: COc1c(OC)c(O)c2c(=O)cc(-c3ccc(O)cc3)oc2c1OC
assay-result: > 100 µM
